src = paper PMC12416549

measurement.target: T1, TNFR1 (Homo sapiens, UniProt P19438)
T1 chain: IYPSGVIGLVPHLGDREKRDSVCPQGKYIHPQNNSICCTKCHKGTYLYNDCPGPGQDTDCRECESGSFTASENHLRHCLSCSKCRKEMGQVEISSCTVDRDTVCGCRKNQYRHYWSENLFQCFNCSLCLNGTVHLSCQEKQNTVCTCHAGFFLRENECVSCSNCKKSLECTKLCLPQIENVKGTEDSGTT
experimental.details: yeast display SC50
recorded.endpoint: apparent Kd (screen) (nM)

[[record]]
binder = "D53A (designed binder) SMEEEVEKAAKEYEKKKKEAIEKHLEKLKAKDKEAAERFLKELEEAAKEYAKAEAKTMSEEEAKRRAKKYKEKVLLSELSEEEQKEIKEAEEKLVRTILKYVEEAAK"
recorded_endpoint = "apparent Kd (screen)"
assay_result = 1.27

[[record]]
binder = "E4K (designed binder) SMEKEVEKAAKEYEKKKKEAIEKHLEKLKAKDKEAAERFLKELEEAAKEYAKDEAKTMSEEEAKRRAKKYKEKVLLSELSEEEQKEIKEAEEKLVRTILKYVEEAAK"
recorded_endpoint = "apparent Kd (screen)"
assay_result = 1.86

